assay: Surrogate Activity-Based Plasma Stability Assay; assay type: in vitro ADME; conditions: rat
Where a SMILES comes first, the peptide text is derived from it. Bridges are numbered along the chain shown (N, C = ends). [ ]: non-standard residue; d: D form. Nle = CCCC[C@H](N)C(=O)O
ATTRIBUTE MEASURED: half-life (min)
# value in min; strip the unit string

Q) Output measured half-life for this item: CCCC[C@H](NC(=O)[C@@H]1CCCN1C(=O)CNC(=O)[C@H](CCCCN)NC(=O)[C@H]1CSSC[C@@H](NC(C)=O)C(=O)N[C@@H](CCCNC(=N)N)C(=O)N2CCC[C@H]2C(=O)N[C@@H](CCCNC(=N)N)C(=O)N[C@@H](CC(C)C)C(=O)N[C@@H](CO)C(=O)N1)C(=O)N1CCC[C@H]1C(=O)N[C@@H](Cc1ccccc1)C(=O)O [Example 14, Ac-c*-R-P-R-L-S-c*-K-G-P-Nle-P-F-OH] (Ac-[dC]RPRLS[dC]KGP[Nle]PF-OH; disulfide 1-7)
A) 7.5

###

experiment: Surrogate Activity-Based Plasma Stability Assay; format: in vitro ADME; conditions: rat
Where a SMILES comes first, the peptide text is derived from it. Bridges are numbered along the chain shown (N, C = ends). [ ]: non-standard residue; d: D form. NMeF = CN[C@@H](Cc1ccccc1)C(=O)O; pGlu = O=C1CC[C@@H](C(=O)O)N1; d(hCys) = N[C@H](CCS)C(=O)O; dNle = CCCC[C@@H](N)C(=O)O; hCys = N[C@@H](CCS)C(=O)O; Nle = CCCC[C@H](N)C(=O)O
Each entry below lists one item and its recorded half-life value.
Write it as a number; the unit min goes unstated.

Consider the worked cases shown below.
molecule="CCCC[C@H](NC(=O)[C@@H]1CCCN1C(=O)CNC(=O)[C@H](CCCCN)NC(=O)[C@@H]1CCSSCC[C@@H](NC(C)=O)C(=O)N[C@@H](CCCNC(=N)N)C(=O)N2CCC[C@H]2C(=O)N[C@@H](CCCNC(=N)N)C(=O)N[C@@H](CC(C)C)C(=O)N[C@@H](CO)C(=O)N1)C(=O)N1CCC[C@H]1C(=O)N[C@@H](Cc1ccccc1)C(=O)O [Example 16] (Ac-[d(hCys)]RPRLS[hCys]KGP[Nle]PF-OH; disulfide 1-7)" attribute_measured=half-life test_value=7
molecule="CCCC[C@H](NC(=O)[C@@H]1CCCN1C(=O)CNC(=O)[C@H](CCCCN)NC(=O)[C@@H]1CCSSC[C@@H](NC(C)=O)C(=O)N[C@@H](CCCNC(=N)N)C(=O)N2CCC[C@H]2C(=O)N[C@@H](CCCNC(=N)N)C(=O)N[C@@H](CC(C)C)C(=O)N[C@@H](CO)C(=O)N1)C(=O)N1CCC[C@H]1C(=O)N[C@@H](Cc1ccccc1)C(=O)O [Example 13, Ac-c*-R-P-R-L-S-hC*-K-G-P-Nle-P-F-OH] (Ac-[dC]RPRLS[hCys]KGP[Nle]PF-OH; disulfide 1-7)" attribute_measured=half-life test_value=10
molecule="CCCC[C@@H](NC(=O)[C@@H]1CCCN1C(=O)CNC(=O)[C@H](CCCCN)NC(=O)[C@H]1CCSSC[C@@H](NC(=O)[C@@H]2CCCN2C(=O)[C@H](CCCNC(=N)N)NC(=O)[C@@H]2CCC(=O)N2)C(=O)N[C@@H](CC(C)C)C(=O)N[C@@H](CO)C(=O)N1)C(=O)N[C@H](C)C(=O)N[C@H](Cc1ccc(O)cc1)C(=O)O [Example 37] ([pGlu]RP[dC]LS[d(hCys)]KGP[dNle][dA][dY]-OH; disulfide 4-7)" attribute_measured=half-life test_value=47

Q) Tell us which half-life value is on record for CCCC[C@H](NC(=O)[C@@H]1CCCN1C(=O)CNC(=O)[C@H](CCCCN)NC(=O)[C@@H]1CSSC[C@@H](NC(C)=O)C(=O)N[C@@H](CCCNC(=N)N)C(=O)N2CCC[C@H]2C(=O)N[C@@H](CCCNC(=N)N)C(=O)N[C@@H](CC(C)C)C(=O)N[C@@H](CO)C(=O)N1)C(=O)N1CCC[C@H]1C(=O)N[C@@H](Cc1ccccc1)C(=O)O [Example 12, Ac-c*-R-P-R-L-S-C*-K-G-P-Nle-P-F-OH] (Ac-[dC]RPRLSCKGP[Nle]PF-OH; disulfide 1-7)
A) 10

Q) Return reported half-life. Input molecule: CCCC[C@H](NC(=O)[C@@H]1CCCN1C(=O)CNC(=O)[C@H](CCCCN)NC(=O)[C@@H]1CSSC[C@H](NC(=O)[C@@H]2CCCN2C(=O)[C@H](CCCNC(=N)N)NC(=O)[C@@H]2CCC(=O)N2)C(=O)N[C@@H](CC(C)C)C(=O)N[C@@H](CO)C(=O)N1)C(=O)N1CCC[C@H]1C(=O)N(C)[C@@H](Cc1ccccc1)C(=O)O [Example 29, pE-R-P-C*-L-S-C*-K-G-P-Nle-P-(N-Me)F-OH] ([pGlu]RPCLSCKGP[Nle]P[NMeF]-OH; disulfide 4-7)
A) 705
